- assayTarget: Recombinant human aldo-keto reductase family 1 member C2 (AKR1C2) protein (Homo sapiens, UniProt P52895)
- Construct: made in house; host or cells: Sf-9 insect cells (baculovirus)
- Sequence (P52895 whole entry): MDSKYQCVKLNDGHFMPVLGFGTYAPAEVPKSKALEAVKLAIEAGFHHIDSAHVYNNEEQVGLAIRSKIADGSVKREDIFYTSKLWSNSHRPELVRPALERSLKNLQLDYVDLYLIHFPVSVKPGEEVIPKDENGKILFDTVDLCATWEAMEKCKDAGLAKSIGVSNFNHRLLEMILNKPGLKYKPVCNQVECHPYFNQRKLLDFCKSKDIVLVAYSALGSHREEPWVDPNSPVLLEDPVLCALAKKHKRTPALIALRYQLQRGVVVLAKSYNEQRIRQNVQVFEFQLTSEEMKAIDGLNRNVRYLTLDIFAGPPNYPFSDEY
- measurementNotes: Inhibition of the aldo-keto reductase family 1 member C2, 3H-dihydrotestosterone conversion
- Type: biochemical
- experimentalSetup: inhibitor at 10 μM
recordedEndpoint: inhibition at 10 µM (%)
Give bare numbers, in %.

Solved cases (5 shown):
> print(dat)
                             chemicalstring  observedresult
1  N#CC(=C1CCN(C(=O)N2CCOCC2)CC1)c1cccc2[nH]ncc12               5
2  N#CC(=C1CCN(C(=O)N2CCC(O)CC2)CC1)c1ccc(Cl)cn1              -4
3  N#CC(=C1CCN(C(=O)N2CCc3nocc3C2)CC1)c1ccc(Cl)cc1              33
4  N#CC(=C1CCN(C(=O)N2CCc3[nH]ncc3C2)CC1)c1ccc(F)cc1              28
5  CCN(CC)C(=O)N1CCC(=C(C#N)c2ccc(F)cn2)CC1              -2

I have 3 molecules here; please give me inhibition at 10 µM for each one.
1. N#CC(=C1CCN(C(=O)N2CCC(O)CC2)CC1)c1ccc(OC(F)(F)F)cc1
2. CCOC1CCN(C(=O)N2CCC(=C(C#N)c3ccc(F)cc3)CC2)CC1
3. CN(C(=O)N1CCC(=C(C#N)c2ccc(F)cc2)CC1)C1CCOCC1

0
2
11

Provide inhibition at 10 µM values for the following items, in order.
1. COCC1CCN(C(=O)N2CCC(=C(C#N)c3ccc(F)cc3F)CC2)CC1
2. N#CC(=C1CCN(C(=O)N2CCC(O)CC2)CC1)c1ccc(F)c(F)c1
3. N#CC(=C1CCN(C(=O)N2CCC(O)CC2)CC1)c1ccc(F)cc1
4. N#CC(=C1CCN(C(=O)N2CC(CO)C2)CC1)c1ccc(F)cc1
5. N#CC(=C1CCN(C(=O)N2CCn3cncc3C2)CC1)c1cccc2[nH]ncc12

19
7
0
9
7

Please go through the list and note inhibition at 10 µM for each molecule.
1. CCOC1CCN(C(=O)N2CCC(=C(C#N)c3cccc4[nH]ncc34)CC2)CC1
2. N#CC(=C1CCN(C(=O)N2CCc3cccnc32)CC1)c1ccc(F)cc1
3. N#CC(=C1CCN(C(=O)N2CCC(O)CC2)CC1)c1ccc(F)cc1F

1: 6; 2: 15; 3: 11

Hi, could you look up inhibition at 10 µM for each item in my list?
1. N#CC(=C1CCN(C(=O)N2CCC(CO)CC2)CC1)c1ccc(Cl)cn1
2. N#CC(=C1CCN(C(=O)N2CCn3ncnc3C2)CC1)c1ccc(Cl)cn1

1: 2; 2: 9

* * *

- assayTarget: Recombinant human AKR1C3 (17β-HSD5) protein (Homo sapiens)
- Construct: made in house; host or cells: E. coli
- Sequence (P42330 whole entry): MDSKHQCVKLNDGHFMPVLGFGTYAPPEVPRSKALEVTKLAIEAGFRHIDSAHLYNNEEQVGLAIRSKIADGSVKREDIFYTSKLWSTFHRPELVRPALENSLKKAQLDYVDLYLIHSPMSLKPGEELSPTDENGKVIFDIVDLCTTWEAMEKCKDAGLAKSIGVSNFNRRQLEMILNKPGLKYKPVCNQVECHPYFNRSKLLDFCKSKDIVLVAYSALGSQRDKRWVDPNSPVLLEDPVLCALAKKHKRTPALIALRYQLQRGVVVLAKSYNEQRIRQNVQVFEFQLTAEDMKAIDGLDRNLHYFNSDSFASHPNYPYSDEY
- measurementNotes: Inhibition of AKR1C3 (17β-hydroxysteroid dehydrogenase type 5) enzyme, fluorescence assay
- Type: biochemical
- experimentalSetup: inhibitor at 500 nM
recordedEndpoint: inhibition at 0.5 µM (%)
One number for each entry, in %.

> print(dat)
                                   molecule  observedresult
1  N#CC(=C1CCN(C(=O)N2CCC(CO)CC2)CC1)c1ccc(F)cc1 [Compound 19]              99
2  CC(O)C1CCN(C(=O)N2CCC(=C(C#N)c3ccc(F)cc3)CC2)CC1 (centres unmarked) [Compound 21]              95
3  CCOC1CCN(C(=O)N2CCC(=C(C#N)c3ccc(F)cc3)CC2)CC1 [Compound 20]              97
4  N#CC(=C1CCN(C(=O)N2CC(C#N)C2)CC1)c1ccc(F)c(F)c1 [Compound 36]              94

For the next question, use this molecule.
Complete the entry with inhibition at 0.5 µM for N#CC(=C1CCN(C(=O)N2CCn3cncc3C2)CC1)c1ccc(F)cc1 [Compound 27]
98

Data provenance: patent US12637471B2
